Just for reference, the supplement of paper PMC10567573 is where these values come from.

B1: TSN (parent)
chain: FLAAEQDIREEIRKVVQSLEQTAR

- Variants of: B1
- measurementProtocol: protein stability index of a GFP-peptide fusion (GPS, HEK-293T) (PSI 1-6); higher = more stable;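 also: lentivirally expressed fusions sorted by FACS into six bins by GFP to DsRed ratio, PSI derived from sequencing read proportions per bin multiplied by bin number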
- details: c terminus: a fixed tail appended
reportedEndpoint: protein stability index
Answer field: number only, no words.

Query: Which measured protein stability index value corresponds to FLAAEQDIREEIRKVVQSLEPTAR [Q21P] ?
Reply: 2.41

Query: Okay, and FLAAEQDIREEIRNVVQSLEQTAR [K14N] ?
Reply: 2.52

Query: Okay, and FKAAEQDIREEIRKVVQSLEQTAR [L2K] ?
Reply: 2.11

Query: Okay, and FLAAEQDCREEIRKVVQSLEQTAR [I8C] ?
Reply: 2.56

Query: Okay, and FLAAEHDIREEIRKVVQSLEQTAR [Q6H] ?
Reply: 1.63

Query: Okay, and FLAAEQDINEEIRKVVQSLEQTAR [R9N] ?
Reply: 2.28

Query: Okay, and FLAAEQDIREEIRRVVQSLEQTAR [K14R] ?
Reply: 3.3

Query: Okay, and FLAAEQDIREEIRKVVQSPEQTAR [L19P] ?
Reply: 3.9

Query: Okay, and GLAAEQDIREEIRKVVQSLEQTAR [F1G] ?
Reply: 2.26

Query: Okay, and FLAAEQDIREEITKVVQSLEQTAR [R13T] ?
Reply: 2.82

Query: Okay, and FLAAEQDIREEIRKVVQSLEQTVR [A23V] ?
Reply: 2.13

Query: Okay, and FLAAEEDIREEIRKVVQSLEQTAR [Q6E] ?
Reply: 2.85

Query: Okay, and FLAAEQDIIEEIRKVVQSLEQTAR [R9I] ?
Reply: 1.84

Query: Okay, and FLAAEQDIREEIRKVVQWLEQTAR [S18W] ?
Reply: 1.62

Query: Okay, and FLAIEQDIREEIRKVVQSLEQTAR [A4I] ?
Reply: 2.08

Query: Okay, and FLAAEQDIREEIRKVVQSREQTAR [L19R] ?
Reply: 3.38

Query: Okay, and FLAAEQDIREEIRKVVQSDEQTAR [L19D] ?
Reply: 3.6

Query: Okay, and FLAAEQDIRPEIRKVVQSLEQTAR [E10P] ?
Reply: 3.21

Query: Okay, and TLAAEQDIREEIRKVVQSLEQTAR [F1T] ?
Reply: 2.72

Query: Okay, and FLAAEQDIREEIKKVVQSLEQTAR [R13K] ?
Reply: 1.89

Query: Okay, and FLAAEQDIVEEIRKVVQSLEQTAR [R9V] ?
Reply: 1.75

Query: Okay, and FLAAEQDIREEIRKVVQSLEQTKR [A23K] ?
Reply: 1.75

Query: Okay, and FLAAPQDIREEIRKVVQSLEQTAR [E5P] ?
Reply: 3

Query: Okay, and FLAAEQDIREEIRCVVQSLEQTAR [K14C] ?
Reply: 2.07

Query: Okay, and FLAAEQIIREEIRKVVQSLEQTAR [D7I] ?
Reply: 2.93

Query: Okay, and FLAAEQDIREMIRKVVQSLEQTAR [E11M] ?
Reply: 1.9

Query: Okay, and FLAAEQSIREEIRKVVQSLEQTAR [D7S] ?
Reply: 1.79

Query: Okay, and FLAAEVDIREEIRKVVQSLEQTAR [Q6V] ?
Reply: 1.79

Query: Okay, and FLAAEQDIREEIRKVVTSLEQTAR [Q17T] ?
Reply: 1.84

Query: Okay, and FLAAEQDIRETIRKVVQSLEQTAR [E11T] ?
Reply: 2.43

Query: Okay, and FLDAEQDIREEIRKVVQSLEQTAR [A3D] ?
Reply: 2.38

Query: Okay, and FLAAEQDIREEIRKVVQSLEYTAR [Q21Y] ?
Reply: 1.64

Query: Okay, and FLAAEQDIREEIRKVVQSLEQTAI [R24I] ?
Reply: 3.12

Query: Okay, and WLAAEQDIREEIRKVVQSLEQTAR [F1W] ?
Reply: 1.85

Query: Okay, and FLAAEQDIREEIRKVVQSLELTAR [Q21L] ?
Reply: 1.91

Query: Okay, and FLAAEPDIREEIRKVVQSLEQTAR [Q6P] ?
Reply: 2.85

Query: Okay, and FLAAEQDIREEIRKVVQSLEQFAR [T22F] ?
Reply: 2.42

Query: Okay, and LLAAEQDIREEIRKVVQSLEQTAR [F1L] ?
Reply: 2.36

Query: Okay, and FLAAEQDIREEIRKVVQDLEQTAR [S18D] ?
Reply: 2.31

Query: Okay, and FLAAEQDIRIEIRKVVQSLEQTAR [E10I] ?
Reply: 1.53

Query: Okay, and FTAAEQDIREEIRKVVQSLEQTAR [L2T] ?
Reply: 2.08

Query: Okay, and FLAAEQDIREEIRKVVQSLEQEAR [T22E] ?
Reply: 2.48

Query: Okay, and FLAAEQDIREEINKVVQSLEQTAR [R13N] ?
Reply: 2.16

Query: Okay, and FLAASQDIREEIRKVVQSLEQTAR [E5S] ?
Reply: 2.52

Query: Okay, and FLAKEQDIREEIRKVVQSLEQTAR [A4K] ?
Reply: 1.71

Query: Okay, and FLAAEQDIREEIRKVVASLEQTAR [Q17A] ?
Reply: 2.47

Query: Okay, and FLAAEQDIREVIRKVVQSLEQTAR [E11V] ?
Reply: 1.95
